assay: Cytotoxicity against human WI38 cells assessed as cell viability at 0.1 uM after 48 hrs by SRB assay; type: cell-based, WI-38; details: read-out: Activity
Can you tell me viability at 48 h, 0.1 µM for the items I'm about to list?
Give the value, in units of %, as a plain number.

Incoming: Given the entry [O-][S@@+]1C[C@@H]2[C@@H](OCc3ccccc3)[C@H](OCc3ccccc3)[C@@H](COCc3ccccc3)O[C@@H]2c2c1ccc1ccccc21 , report its measured viability at 48 h, 0.1 µM.
Outgoing: 92.5

Incoming: Entry to check: [O-][S@+]1C[C@@H]2[C@@H](OCc3ccccc3)[C@H](OCc3ccccc3)[C@@H](COCc3ccccc3)O[C@@H]2c2c1ccc1ccccc21
Outgoing: 98.5

Incoming: # repeat for Cc1ccc2c(c1)[C@H]1O[C@H](COCc3ccccc3)[C@@H](OCc3ccccc3)[C@H](OCc3ccccc3)[C@H]1CS2(=O)=O
Outgoing: 95.7

Incoming: Can you handle COc1ccc2c(c1)[C@H]1O[C@H](COCc3ccccc3)[C@@H](OCc3ccccc3)[C@H](OCc3ccccc3)[C@H]1C[S@@+]2[O-] next?
Outgoing: 98

* * *

test system: Plasmodium falciparum; test: Antimalarial activity against Plasmodium falciparum 3D7 after 48 hrs by parasite lactate dehydrogenase assay; format: functional, organism-based; conditions: 3D7, 48 h
pIC50: −log10 of the molar value.
Task for the reader: assign each of the following molecules its reported pIC50.

Incoming: Give recorded pIC50 with Plasmodium falciparum for the following molecule: c1ccc(COC[C@H]2O[C@@H]3c4c(ccc5ccccc45)SC[C@@H]3[C@@H](OCc3ccccc3)[C@@H]2OCc2ccccc2)cc1
Outgoing: < 4.00

Incoming: Also check [O-][S@@+]1C[C@@H]2[C@@H](OCc3ccccc3)[C@H](OCc3ccccc3)[C@@H](COCc3ccccc3)O[C@@H]2c2ccccc21
Outgoing: < 4.00

Incoming: Thanks! And CC(=O)OC[C@H]1O[C@@H]2c3cc(C(C)(C)C)ccc3SC[C@@H]2[C@@H](OC(C)=O)[C@@H]1OC(C)=O ?
Outgoing: < 4.00

Incoming: Follow-up item: O=S1(=O)C[C@@H]2[C@@H](OCc3ccccc3)[C@H](OCc3ccccc3)[C@@H](COCc3ccccc3)O[C@H]2c2c1ccc1ccccc21
Outgoing: < 4.00

Incoming: CC(C)(C)c1ccc2c(c1)[C@@H]1O[C@H](COCc3ccccc3)[C@@H](OCc3ccccc3)[C@H](OCc3ccccc3)[C@H]1CS2(=O)=O , same question.
Outgoing: < 4.00

Incoming: Follow-up entry: CC(C)(C)c1ccc2c(c1)[C@H]1O[C@H](CO)[C@@H](O)[C@H](O)[C@H]1CS2(=O)=O
Outgoing: < 4.00

Incoming: Please give the result for [O-][S@+]1C[C@@H]2[C@@H](OCc3ccccc3)[C@H](OCc3ccccc3)[C@@H](COCc3ccccc3)O[C@@H]2c2ccccc21 too.
Outgoing: < 4.00

Incoming: Now the molecule O=S1(=O)C[C@@H]2[C@@H](OCc3ccccc3)[C@H](OCc3ccccc3)[C@@H](COCc3ccccc3)O[C@@H]2c2ccccc21
Outgoing: < 4.00

Incoming: Can you handle Cc1ccc2c(c1)[C@H]1O[C@H](COCc3ccccc3)[C@@H](OCc3ccccc3)[C@H](OCc3ccccc3)[C@H]1C[S@+]2[O-] next?
Outgoing: < 4.00

Incoming: And for CC(C)(C)c1ccc2c(c1)[C@H]1O[C@H](CO)[C@@H](O)[C@H](O)[C@H]1CS2 ?
Outgoing: < 4.00

* * *

test: Cytotoxicity against human WI38 cells assessed as cell viability at 100 uM after 48 hrs by SRB assay; format: cell-based, WI-38; settings: read-out: Activity
Fulfilled if viability at 48 h, 100 µM is below 70%. Not fulfilled if not; exact matches included in Not fulfilled.

Incoming: Report whether reported viability at 48 h, 100 µM is lower than 70% (strictly) for Cc1ccc2c(c1)[C@H]1O[C@H](COCc3ccccc3)[C@@H](OCc3ccccc3)[C@H](OCc3ccccc3)[C@H]1CS2
Outgoing: Not fulfilled

Incoming: Okay, and [O-][S@+]1C[C@@H]2[C@@H](OCc3ccccc3)[C@H](OCc3ccccc3)[C@@H](COCc3ccccc3)O[C@@H]2c2c1ccc1ccccc21 ?
Outgoing: Not fulfilled

Incoming: Another molecule: COc1ccc2c(c1)[C@H]1O[C@H](COCc3ccccc3)[C@@H](OCc3ccccc3)[C@H](OCc3ccccc3)[C@H]1CS2
Outgoing: Fulfilled

Incoming: Can you handle O=S1(=O)C[C@@H]2[C@@H](OCc3ccccc3)[C@H](OCc3ccccc3)[C@@H](COCc3ccccc3)O[C@@H]2c2ccccc21 next?
Outgoing: Fulfilled
